These entries and their values trace back to PubChem BioAssay.

Experiment: growth of efflux-deficient E. coli DRC39 – strain DRC39, OD650, 24 h, E. coli filamentation inducers, primary screen (AID 1178);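 note: growth measured as culture turbidity by optical density at 650 nm; test concentration not given here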
Details: E. coli DRC39 acrAB, higher = more signal, called active from +8 up or from −8 down
Calls of active or inactive are those of the source.
measurement label: z-score

z-score reading for N#Cc1ccc(NN2C(C(O)c3ccco3)C=CC3C(=O)N(c4ccccc4)C(=O)C32)cc1 (configuration not stated) : -2.14 (inactive)

z-score reading for COc1ccccc1CN1C(=O)c2ccccc2[C@@H](C(=O)NCC(C)C)[C@@H]1c1ccc(CO)cc1 : 0.547 (inactive)

z-score reading for NC(=O)NCC#Cc1ccc2c(c1)[C@]1(C(=O)N2)[C@H](c2ccc(O)cc2)N2[C@H](c3ccccc3)[C@H](c3ccccc3)OC(=O)[C@H]2[C@@H]1C(N)=O : 0.968 (inactive)

z-score reading for C=CCNC(=O)[C@H]1[C@@H]2C(=O)O[C@@H](c3ccccc3)[C@@H](c3ccccc3)N2[C@@H](c2ccc(OCCO)cc2)[C@]12C(=O)N(C(=O)OCCOC)c1ccc(C#CC3=CCCCC3)cc12 : -0.178 (inactive)

z-score reading for O=C1OCCC=C[C@H]2OC34C=CCN(Cn5nnc6ccccc65)C(=O)[C@H]3N(CCCCCO)C(=O)[C@@H]4C12 (some centres not stated) : 0.672 (inactive)

z-score reading for Cc1cc(C)c(C(O)C2C=CC3C(=O)N(c4ccccc4)C(=O)C3N2Nc2ccc([N+](=O)[O-])cc2)c(C)c1 (configuration not stated) : -0.777 (inactive)

z-score reading for C[N+](C)(C)CCCCCCNC(=O)[C@@H]1C[C@@H]2C(=O)NCC(=O)N2[C@@H]1c1ccc(O)cc1 : 0.182 (inactive)

====

Experiment: small molecules captured by biotinylated probe aFST – biochemical, small-molecule microarray, fluorescence 635/667, stem cell growth factor project, primary screen (AID 1086);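 note: score merges 667 nm fluorescence with signal-to-noise of each printed compound spot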
Conditions: higher = more signal
measurement label: composite z-score
Reply with the value as a number alone.

composite z-score reading for COC(=O)[C@@]1(Cc2ccc(F)cc2)[C@H]2c3cc(C(=O)N(C)C)n(CCSCCO)c3C[C@H]2CN1C(=O)c1ccccc1 : 0.568

composite z-score reading for COc1cccc(C[C@H]2C[C@@H](CO[Si](C(C)C)(C(C)C)C(C)C)N3C(=O)[C@]4(C(C)=O)O[C@]23[C@H]2C(=O)N(C)C(=O)[C@H]24)c1 : 0.421

composite z-score reading for COCCOC(=O)N1C(=O)[C@@]2(c3cc(C#CCNC(N)=O)ccc31)[C@H](c1ccc(OCCO)cc1)N1[C@H](c3ccccc3)[C@H](c3ccccc3)OC(=O)[C@H]1[C@@H]2C(=O)N1CCN(c2ncccn2)CC1 : 0.974

composite z-score reading for COC(=O)[C@@]1(Cc2ccccc2)[C@H]2c3cc(C(=O)N(C)C)n(Cc4ccc(O)c(OC)c4)c3C[C@H]2CN1C(=O)c1ccccc1 : 1.91

composite z-score reading for CC(C)NC(=O)[C@@H]1c2ccccc2C(=O)N(Cc2cc(C(F)(F)F)cc(C(F)(F)F)c2)[C@H]1c1ccc(CO)cc1 : 0.619

composite z-score reading for Cc1ccc(-c2cccc(=O)o2)cc1 : 0.121

composite z-score reading for C=CCOc1ccc([C@@H]2CC=C(C(=O)OCC)[C@H](c3cccc(Br)c3)N2S(=O)(=O)c2ccc(C)cc2)cc1 : 0.176

composite z-score reading for CCCNC(=O)[C@@H]1c2ccccc2C(=O)N(CC23CC4CC(CC(C4)C2)C3)[C@H]1c1ccc(CO)cc1 : 1.3

composite z-score reading for O=C1C2C=CC(C(O)c3ccc(Br)cc3)N(Nc3ccccc3)C2C(=O)N1c1ccccc1 (stereo not given) : -0.194

composite z-score reading for COCC(=C=CC[C@@H](O)c1ccccc1OCCO)C[C@@H](O)c1ccccn1 : -0.0376

composite z-score reading for COC(=O)[C@@]1(Cc2ccc(F)cc2)[C@H]2c3cc(C(=O)N(C)C)n(Cc4ccc(C)c(F)c4F)c3C[C@H]2CN1C(=O)c1ccccc1 : 0.758

composite z-score reading for C=CC[C@]1(C(=O)N2CCOCC2)N=C(c2ccc(OCCCO)cc2)O[C@H]1c1ccccc1CN=[N+]=[N-] : 1.99

composite z-score reading for CN1C(=O)C2C=CC(C(O)COCc3ccccc3)N(Nc3ccccc3)C2C1=O (stereo not given) : 0.486

composite z-score reading for COc1ccc([Si](C)(C)[C@@H]2[C@@H](CC(=O)N3Cc4ccccc4C[C@H]3CO)O[C@]3(C(=O)N(Cc4cccc(N5CCCCC5=O)c4)c4ccccc43)[C@H]2C)cc1 : 0.272

composite z-score reading for CCC[C@@H]1C[C@@]1(CCC)[C@@H](NC(=O)c1ccco1)c1ccc(Cl)cc1 : 0.161

====

Experiment: blockers of DNA damage checkpoint Chk1 activation – imaging, HeLa, hydroxyurea, phospho-Chk1 antibody, percent positive cells, primary screen (AID 1186)
Settings: hydroxyurea-induced phospho-Chk1 immunofluorescence imaging, higher = more signal
Assignment: determine reported z-score for the given compounds.
Reply with the value as a number alone.

z-score reading for C=C(/C(=C/C[C@@H](OC(=O)c1ccncc1)c1cccc(OCCO)c1)c1cc(C(=O)OC)ccc1OC)C(C)C : -0.185

z-score reading for CCCN1C(=O)[C@@]2(Cc3ccccc3)N=C(c3ccc(OCCCO)cc3)O[C@H]2c2ccccc21 : 0.276

z-score reading for NCCCCCCNC(=O)[C@H]1C[C@H]2C(=O)N3CCC[C@H]3C(=O)N2[C@H]1c1ccc(O)cc1 : -0.0342

z-score reading for COC(=O)C(CC#Cc1ccc2c(c1)[C@]1(C(=O)N2)[C@H](c2ccc(OCCO)cc2)N2[C@H](c3ccccc3)[C@H](c3ccccc3)OC(=O)[C@H]2[C@@H]1C(=O)O)C(=O)OC : 0.0445

z-score reading for C=C(COC)C(=O)CC[C@H](OC(=O)c1ccccc1-c1ccccc1C(=O)O)c1ccc(CO)o1 : 0.44

z-score reading for CC1(C)[C@@H]2CC(C(O)C3C=CC4C(=O)N(c5ccccc5)C(=O)C4N3Nc3ccccc3F)=C[C@@H]1C2 (stereo partly drawn) : 0.498

z-score reading for COCCCNC(=O)[C@@]1(Cc2ccccc2I)c2ccccc2C(=O)N(Cc2ccccc2Cl)[C@H]1c1ccc(CO)cc1 : -0.152

z-score reading for COc1ccccc1CN1C(=O)c2ccccc2[C@@]2(Cc3ccccc3N(C3CC3)C2=O)[C@@H]1c1ccc(CO)cc1 : 0.315

====

Biological target: Neurogenic locus notch homolog protein 2 (Homo sapiens) (UniProt Q04721)
Sequence (Q04721 whole entry, looked up): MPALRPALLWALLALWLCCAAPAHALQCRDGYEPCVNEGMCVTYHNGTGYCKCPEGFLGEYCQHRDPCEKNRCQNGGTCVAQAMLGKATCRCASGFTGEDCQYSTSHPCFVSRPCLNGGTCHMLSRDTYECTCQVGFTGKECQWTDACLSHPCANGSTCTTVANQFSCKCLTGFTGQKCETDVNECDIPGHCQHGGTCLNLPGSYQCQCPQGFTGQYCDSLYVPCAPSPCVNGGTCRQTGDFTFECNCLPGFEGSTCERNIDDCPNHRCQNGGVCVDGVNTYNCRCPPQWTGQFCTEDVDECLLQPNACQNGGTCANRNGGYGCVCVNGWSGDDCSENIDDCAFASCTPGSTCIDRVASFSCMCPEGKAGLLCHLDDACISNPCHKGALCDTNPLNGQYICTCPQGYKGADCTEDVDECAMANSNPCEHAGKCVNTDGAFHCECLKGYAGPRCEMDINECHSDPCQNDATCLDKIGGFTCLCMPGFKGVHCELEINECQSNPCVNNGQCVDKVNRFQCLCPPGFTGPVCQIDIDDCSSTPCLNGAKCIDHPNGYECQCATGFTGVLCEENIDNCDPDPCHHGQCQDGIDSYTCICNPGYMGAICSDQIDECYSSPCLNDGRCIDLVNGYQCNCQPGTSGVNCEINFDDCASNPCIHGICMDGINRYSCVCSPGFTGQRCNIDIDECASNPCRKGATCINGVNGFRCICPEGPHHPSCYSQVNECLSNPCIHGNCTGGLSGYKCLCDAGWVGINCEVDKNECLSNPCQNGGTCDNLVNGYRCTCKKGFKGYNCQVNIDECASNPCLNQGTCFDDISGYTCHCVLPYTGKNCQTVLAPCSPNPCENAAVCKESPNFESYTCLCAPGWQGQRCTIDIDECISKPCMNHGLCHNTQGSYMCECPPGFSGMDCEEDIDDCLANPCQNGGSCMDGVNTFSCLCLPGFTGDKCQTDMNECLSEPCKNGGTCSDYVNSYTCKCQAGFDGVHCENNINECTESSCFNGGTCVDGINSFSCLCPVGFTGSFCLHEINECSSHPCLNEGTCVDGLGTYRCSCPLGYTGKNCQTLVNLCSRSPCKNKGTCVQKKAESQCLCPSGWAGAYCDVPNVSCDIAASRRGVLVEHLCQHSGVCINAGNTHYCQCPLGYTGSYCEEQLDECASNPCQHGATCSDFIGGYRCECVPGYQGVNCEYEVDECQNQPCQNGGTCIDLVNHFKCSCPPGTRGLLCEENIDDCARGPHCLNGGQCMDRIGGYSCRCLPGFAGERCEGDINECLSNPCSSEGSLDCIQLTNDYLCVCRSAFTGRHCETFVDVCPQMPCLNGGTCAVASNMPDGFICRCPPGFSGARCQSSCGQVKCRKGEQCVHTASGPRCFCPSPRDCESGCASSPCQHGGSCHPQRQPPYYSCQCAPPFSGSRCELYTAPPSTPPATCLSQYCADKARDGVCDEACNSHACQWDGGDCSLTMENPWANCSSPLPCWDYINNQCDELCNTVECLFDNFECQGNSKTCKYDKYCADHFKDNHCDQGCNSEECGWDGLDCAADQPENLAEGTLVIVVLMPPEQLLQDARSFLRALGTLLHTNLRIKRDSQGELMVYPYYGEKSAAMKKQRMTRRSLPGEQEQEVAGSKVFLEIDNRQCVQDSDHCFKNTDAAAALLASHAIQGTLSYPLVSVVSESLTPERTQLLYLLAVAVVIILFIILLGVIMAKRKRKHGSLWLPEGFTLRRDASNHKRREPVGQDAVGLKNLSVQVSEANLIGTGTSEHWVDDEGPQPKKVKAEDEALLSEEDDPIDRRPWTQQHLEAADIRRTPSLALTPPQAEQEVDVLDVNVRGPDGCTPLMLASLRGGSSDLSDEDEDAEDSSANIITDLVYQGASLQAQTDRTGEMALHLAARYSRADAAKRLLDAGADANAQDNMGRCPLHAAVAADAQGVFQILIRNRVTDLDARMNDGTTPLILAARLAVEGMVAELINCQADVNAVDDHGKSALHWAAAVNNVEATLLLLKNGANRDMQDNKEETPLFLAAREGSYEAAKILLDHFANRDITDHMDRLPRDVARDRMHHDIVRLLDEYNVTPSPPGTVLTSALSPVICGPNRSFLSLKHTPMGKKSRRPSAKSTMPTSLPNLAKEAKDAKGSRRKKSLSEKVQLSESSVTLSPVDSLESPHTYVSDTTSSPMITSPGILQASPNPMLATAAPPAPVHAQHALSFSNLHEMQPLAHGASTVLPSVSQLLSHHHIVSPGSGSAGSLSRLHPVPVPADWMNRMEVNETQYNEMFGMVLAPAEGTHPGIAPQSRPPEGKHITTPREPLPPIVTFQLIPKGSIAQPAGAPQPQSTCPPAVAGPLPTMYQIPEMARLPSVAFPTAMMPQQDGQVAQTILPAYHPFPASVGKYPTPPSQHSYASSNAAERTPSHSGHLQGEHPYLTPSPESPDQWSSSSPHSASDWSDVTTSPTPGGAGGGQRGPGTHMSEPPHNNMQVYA
Experiment: small molecules binding Notch2 protein – biochemical, small-molecule microarray, 635 nm fluorescence, stem cell growth factors, primary screen (AID 1073)
Details: higher = more signal
Kindly return Met if reported composite z-score is no lower than 0.8; return Not met if it is lower.

Hi team, for CCCCCCCCCCC(O)C1C=CC2C(=O)NC(=O)C2N1Nc1ccccn1 (stereo not drawn) , is the recorded composite z-score at or above 0.8? Not met

Hi team, for O=C1C2C=CC(C(O)c3ccccn3)N(Nc3ccccc3)C2C(=O)N1c1ccccc1 (stereo not drawn) , is the recorded composite z-score at or above 0.8? Not met

Hi team, for CCOC(=O)C1=CCC(c2cccc(Cl)c2)O1 (stereo not drawn) , is the recorded composite z-score at or above 0.8? Not met

Hi team, for COCCOC(=O)N1C(=O)[C@@]2(c3cc(C#CCNC(N)=O)ccc31)[C@H](C(=O)N1CCCCCCC1)[C@H]1C(=O)O[C@H](c3ccccc3)[C@H](c3ccccc3)N1[C@@H]2c1ccc(OCCO)cc1 , is the recorded composite z-score at or above 0.8? Not met

Hi team, for CN1C(=O)C2C=CC(C(O)c3cccc4ccccc34)N(NC(=O)OC(C)(C)C)C2C1=O (stereo not drawn) , is the recorded composite z-score at or above 0.8? Met

Hi team, for CCCCC(CC)C(O)C1C=CC2C(=O)NC(=O)C2N1Nc1ccccn1 (stereo not drawn) , is the recorded composite z-score at or above 0.8? Met

Hi team, for O=C1c2ccccc2C(=O)C2CC([C@H]3Oc4ccccc4S(=O)(=O)N4CCC[C@@H]34)=CCC12 (stereo partly drawn) , is the recorded composite z-score at or above 0.8? Not met

Hi team, for COCCCNC(=O)[C@]1(Cc2ccccc2CN=[N+]=[N-])N=C(c2ccc(OCCCO)cc2)O[C@@H]1c1ccccc1CN=[N+]=[N-] , is the recorded composite z-score at or above 0.8? Met

====

System: Wnt5a (protein binding on small-molecule microarray)
Test: small molecules binding Wnt5a protein – biophysical, small-molecule microarray, 635/667 nm fluorescence, primary screen (AID 1142);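 note: fluorescence read at 667 nm with signal to noise per printed feature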
Settings: 635 nm fluorescence, higher = more signal
Assignment: determine reported composite z-score for the given compounds.

composite z-score reading for O=C1O[C@H](c2ccccc2)[C@H](c2ccccc2)N2[C@H]1[C@@H](C(=O)N1CCN(c3ncccn3)CC1)[C@]1(C(=O)Nc3ccc(C#CCCO)cc31)[C@H]2c1ccc(OCCO)cc1 : 1.02

composite z-score reading for COc1ccc(C(=O)Nc2ccc(CN3C(=O)[C@]4(O[C@H](CCn5cc([C@H](O)c6ccccc6)nn5)[C@@H]([Si](C)(C)c5ccc(OC)cc5)[C@@H]4C)c4ccccc43)cc2)cc1 : -0.0249

composite z-score reading for [N-]=[N+]=NCc1ccccc1[C@H]1OC(c2ccc(OCCCO)cc2)=N[C@@]1(Cc1ccccc1)C(N)=O : 0.765

composite z-score reading for COc1ccc([Si](C)(C)[C@H]2[C@H](CCn3cc(CCO)nn3)O[C@@]3(C(=O)N(Cc4cccc(N5C(=O)c6cccc7cccc5c67)c4)c4ccccc43)[C@@H]2C)cc1 : 0.16

composite z-score reading for [N-]=[N+]=Nc1ccccc1[C@@H]1OC(c2ccc(OCCCO)cc2)=N[C@]1(CCS(=O)(=O)c1ccccc1)C(=O)NCc1ccccc1 : 0.554

composite z-score reading for COCCOC(=O)N1C(=O)[C@@]2(c3cc(C#CCCO)ccc31)[C@H](C(=O)N1CCc3cc(OC)c(OC)cc3C1)[C@H]1C(=O)O[C@H](c3ccccc3)[C@H](c3ccccc3)N1[C@@H]2c1ccc(OCCO)cc1 : 0.667

composite z-score reading for CC(C)(C)N1CC=CC23O[C@@H]4C=CCCOC(=O)C4[C@H]2C(=O)N(CCCO)[C@@H]3C1=O (some centres not stated) : -0.213
